system: SN12C renal; experiment: NCI tumour cell line growth inhibition, 48 h
testReadout: TGI

[[record]]
molecule = "CC[C@@H]1c2c(C#N)ncn2-c2cnc(Nc3ccc(C(=O)NC4CCN(C5CCN(CC6CC6)CC5)CC4)cc3OC)nc2N1C1CCCC1"
valuemeasured = "1.91 µM"

[[record]]
molecule = "O=c1c2ccccc2nc(-c2cc3c(cc2Cl)Sc2nccn2S3(=O)=O)n1-c1ccccc1"
valuemeasured = "> 100 µM"

[[record]]
molecule = "Cn1c(=O)c2c(nc3n(CCCCl)c(=O)ccn23)n(C)c1=O"
valuemeasured = "> 100 µM"

[[record]]
molecule = "COC(=O)[C@H](Cc1ccccc1)NP(=O)(OCCC#N)OCC1OC(n2cc(C)c(=O)[nH]c2=O)CC1N=[N+]=[N-] (stereo partly drawn)"
valuemeasured = "> 100 µM"

[[record]]
molecule = "CC[C@H](CCCC[C@H]1CC[C@@H]2CC(=O)C[C@H]12)OC"
valuemeasured = "> 100 µM"

[[record]]
molecule = "O=C(c1ccccc1)n1c(Cc2ccccc2)nc2cc(C34CC5CC(CC(C5)C3)C4)ccc21"
valuemeasured = "> 100 µM"

[[record]]
molecule = "Cc1ccc2nc3c(=O)[nH]c(=O)nc-3n(C)c2c1C"
valuemeasured = "> 100 µM"

[[record]]
molecule = "COC1=C(N)C(=O)c2nc(C)ccc2C1=O"
valuemeasured = "3.27 µM"

[[record]]
molecule = "COc1cc(C(O)CCBr)c(OC)cc1C (stereo not drawn)"
valuemeasured = "> 100 µM"

[[record]]
molecule = "O=[N+]([O-])c1ccc(C[P+](c2ccccc2)(c2ccccc2)c2ccccc2)cc1"
valuemeasured = "> 100 µM"

[[record]]
molecule = "CC1=C(c2ccccc2)C(c2ccccc2)=C(c2ccccc2)C2(c3ccccc3)C(=O)C(C)CN12 (stereo not drawn)"
valuemeasured = "> 100 µM"

[[record]]
molecule = "CCOC(=O)Nc1ccc2c(c1)/C(=N\\NC(N)=S)c1ccccc1-2"
valuemeasured = "65.7 µM"

[[record]]
molecule = "CN1CN(c2ccccc2)C2(CCN(Cc3csc4ccccc34)CC2)C1=O"
valuemeasured = "30.6 µM"

[[record]]
molecule = "COC(=O)/C=C\\COCC1C2CCC(=O)C21 (stereo not drawn)"
valuemeasured = "> 25 µM"

[[record]]
molecule = "COC(=O)C(Cc1ccccc1)NP(=O)(O)OCC1OC(n2cc(Br)c(=O)[nH]c2=O)CC1O (stereo not drawn)"
valuemeasured = "> 100 µM"

[[record]]
molecule = "CN(CCO)CC[C@H](CSc1ccccc1)Nc1ccc(S(=O)(=O)NC(=O)c2ccc(N3CCC([C@@H](O)c4ccccc4-c4ccc(Cl)cc4)CC3)cc2)cc1S(=O)(=O)C(F)(F)F"
valuemeasured = "11.5 µM"

[[record]]
molecule = "O=C1CC(O)CC(=O)C1=C(O)CCCCCCCCCCc1ccccc1 (stereo not drawn)"
valuemeasured = "> 100 µM"

[[record]]
molecule = "COc1ccc(-c2cc3c(c4cc(OC)ccc24)C(=O)OC3=O)cc1"
valuemeasured = "> 100 µM"

[[record]]
molecule = "O=C(COc1ccc(Cl)cc1)N1N=C(c2ccc(Cl)cc2)CC1(O)c1ccccc1 (stereo not drawn)"
valuemeasured = "11.4 µM"

[[record]]
molecule = "CC(C)Oc1c(O)c2c3c(oc(=O)n3C=CC2c2ccccc2)c1OC(C)C (stereo not drawn)"
valuemeasured = "> 100 µM"

[[record]]
molecule = "C=C1C(=O)O[C@H]2[C@H]1CC/C(CNC(=O)/C=C/c1cc(OC)c(OC)c(OC)c1)=C\\CC[C@@]1(C)O[C@@H]21"
valuemeasured = "14.3 µM"

[[record]]
molecule = "OC(Cc1ccncc1)C(Cl)(Cl)Cl (stereo not drawn)"
valuemeasured = "> 100 µM"

[[record]]
molecule = "C[C@]12C[C@H](CCCCCCNCCOC(=O)NCCCc3ccc(N(CCCl)CCCl)cc3)C3=C4CCC(=O)C=C4CCC3C1CC[C@@H]2O (stereo partly drawn)"
valuemeasured = "3.39 µM"

[[record]]
molecule = "N.N.N.N.[Co+3].[N-]=[N+]=[N-].[N-]=[N+]=[N-].[N-]=[N+]=[N-]"
valuemeasured = "> 100 µM"

[[record]]
molecule = "Cc1ccc(NCC(=O)N2CC(=O)Nc3ccccc32)c(C)c1"
valuemeasured = "> 100 µM"

[[record]]
molecule = "CCOC(=O)c1nn2c(nc1=O)sc1ccc3ccccc3c12"
valuemeasured = "> 100 µM"

[[record]]
molecule = "Brc1ccc(C2CC(c3cccc4ccccc34)=Nc3ccccc3S2)cc1 (stereo not drawn)"
valuemeasured = "> 100 µM"

[[record]]
molecule = "O=S1(=O)OCCOS(=O)(=O)C1S(=O)(=O)c1ccc2ccccc2c1"
valuemeasured = "> 100 µM"

[[record]]
molecule = "CCOC(=O)c1nnsc1NC(=O)Nc1ccc(Cc2ccc(NC(=O)Nc3snnc3C(=O)OCC)cc2)cc1"
valuemeasured = "> 100 µM"

[[record]]
molecule = "COC(=O)NC(=O)c1cn(C2OC(CO)C(O)C2O)c(=O)[nH]c1=O (stereo not drawn)"
valuemeasured = "> 100 µM"

[[record]]
molecule = "CCc1ccccc1NC(=O)C1=C(C)NC(C)=C(C(=O)Nc2ccccc2CC)C1c1ccccc1Cl"
valuemeasured = "> 100 µM"

[[record]]
molecule = "O=C1N(C2CCCCC2)CC12CCCCC2"
valuemeasured = "> 100 µM"

[[record]]
molecule = "O=c1cc(-c2ccccc2)c2ccccc2[nH]1"
valuemeasured = "> 100 µM"

[[record]]
molecule = "CN1CCN(C(=S)N(C(=O)c2ccc(Cl)cc2)c2ccccc2)CC1"
valuemeasured = "> 100 µM"

[[record]]
molecule = "CC(CC[C@@H](O)C(C)(C)O)C1[C@@H](O)CC2(C)C3CC(O)C4C(C)(C)[C@@H](OC5OC(CO)C(O)C(O)C5O)CC[C@@]45C[C@@]35CC[C@]12C (stereo partly drawn)"
valuemeasured = "> 10 µM"

[[record]]
molecule = "Oc1c(-c2nnc(-c3ccccc3Cl)o2)sc2nnc(-c3ccccc3)c(-c3ccccc3)c12"
valuemeasured = "90.5 µM"

[[record]]
molecule = "COc1cc(Br)c(C=Nc2cccc3cc(OC)c(OC)cc23)cc1OC"
valuemeasured = "> 100 µM"

[[record]]
molecule = "CC12O[C@]3([C@H](C(=O)N4CCOC43C)[C@H]1Cl)[C@H]1O[C@H]12 (stereo partly drawn)"
valuemeasured = "> 100 µM"

